Source listed as ChEMBL document CHEMBL4673181.

- assay explanation: Selectivity index, ratio of ED50 for mouse RAW264.7 cells to ED50 for antileishmanial activity against axenic amastigote stage of Leishmania mexicana (MNYC/BZ/62/M379)
- Assay type: toxicity
- condition info: read-out: Ratio ED50
assay readout: selectivity ratio

{"compound": "COC(=O)[C@]12CCC(C)(C)C[C@H]1C1=CC[C@@H]3[C@@]4(C)CC[C@@H]5O[C@H](c6ccccc6C(=O)O)OC[C@@]5(C)[C@@H]4CC[C@@]3(C)[C@]1(C)CC2", "endpoint result": 0.5}
{"compound": "CO[C@H]1O[C@H]([C@@H]2OC[C@@]3(C)[C@@H]4CC[C@]5(C)[C@H](CC=C6[C@@H]7CC(C)(C)CC[C@]7(C(=O)O)CC[C@]65C)[C@@]4(C)CC[C@@H]3O2)[C@@H](O)[C@H](O)[C@H]1O", "endpoint result": 5}
{"compound": "CC1(C)CC[C@]2(C(=O)O)CC[C@]3(C)C(=CC[C@@H]4[C@@]5(C)CC[C@@H]6O[C@H]([C@H](O)[C@@H](O)[C@H](O)CO)OC[C@@]6(C)[C@@H]5CC[C@]43C)[C@@H]2C1", "endpoint result": 3}
{"compound": "CC(=O)OC[C@@]1(C)[C@@H]2CC[C@]3(C)[C@H](CC=C4[C@@H]5CC(C)(C)CC[C@]5(NC(=O)N5CCCC5)CC[C@]43C)[C@@]2(C)CC[C@@H]1O", "endpoint result": 1}
{"compound": "C[C@H](O)[C@H]1OC(C[C@@H]2OC[C@@]3(C)[C@@H]4CC[C@]5(C)[C@H](CC=C6[C@@H]7CC(C)(C)CC[C@]7(C(=O)O)CC[C@]65C)[C@@]4(C)CC[C@@H]3O2)[C@@H](O)[C@@H]1O (stereo not given in full)", "endpoint result": 2.9}

---

- Test system: Leishmania mexicana
- assay explanation: Antileishmanial activity against axenic amastigote stage of Leishmania mexicana (MNYC/BZ/62/M379) assessed as induction of parasite killing incubated for 24 hrs by alamar blue dye based fluorescence analysis
- Format: functional
- condition info: read-out: ED50 (the source's name)
pEC50: −log10 of the molar value.
Recorded measurements of pEC50, one per entry

{"molecule": "CC1(C)CC[C@]2(CO)CC[C@]3(C)C(=CC[C@@H]4[C@@]5(C)CC[C@@H]6O[C@H]([C@H](O)[C@@H](O)[C@H](O)CO)OC[C@@]6(C)[C@@H]5CC[C@]43C)[C@@H]2C1", "bound operator": "<", "pEC50": 4.30}
{"molecule": "CC(=O)OC[C@H](OC(C)=O)[C@H](OC(C)=O)[C@@H](OC(C)=O)[C@@H]1OC[C@@]2(C)[C@@H]3CC[C@]4(C)[C@H](CC=C5[C@@H]6CC(C)(C)CC[C@]6(C(=O)O)CC[C@]54C)[C@@]3(C)CC[C@@H]2O1", "bound operator": "=", "pEC50": 5.14}
{"molecule": "CC1(C)CC[C@]2(C(=O)O)CC[C@]3(C)C(=CC[C@@H]4[C@@]5(C)CC[C@H](O[C@@H]6O[C@H](CO)[C@@H](O)[C@H](O)[C@H]6O)[C@@](C)(CO)[C@@H]5CC[C@]43C)[C@@H]2C1 [Hederagenin-3-O-beta-D-glucopyranoside]", "bound operator": "<", "pEC50": 4.30}
{"molecule": "CC1(C)CC[C@]2(C(=O)O)CC[C@]3(C)C(=CC[C@@H]4[C@@]5(C)CC[C@@H]6OCOC[C@@]6(C)[C@@H]5CC[C@]43C)[C@@H]2C1", "bound operator": "=", "pEC50": 4.83}
